// provenance: ChEMBL document CHEMBL1127774

Hi there, I'd appreciate the recorded IC50 for every entry that follows.
Molecular target: Type-1 angiotensin II receptor (Bos taurus)
Sequence (P25104 whole entry): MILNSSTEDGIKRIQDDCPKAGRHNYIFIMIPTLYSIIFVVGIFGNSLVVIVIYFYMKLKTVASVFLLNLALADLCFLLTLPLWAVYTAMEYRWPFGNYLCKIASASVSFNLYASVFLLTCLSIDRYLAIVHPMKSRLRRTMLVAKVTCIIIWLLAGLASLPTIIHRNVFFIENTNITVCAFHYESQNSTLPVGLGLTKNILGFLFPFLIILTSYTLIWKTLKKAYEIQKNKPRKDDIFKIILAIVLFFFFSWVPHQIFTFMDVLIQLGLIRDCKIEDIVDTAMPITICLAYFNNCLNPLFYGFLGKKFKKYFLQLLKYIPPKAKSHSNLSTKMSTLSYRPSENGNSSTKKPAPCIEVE
Output spec: scalar in µM, unitless text.

Lab note: CCCCc1nc2ccc(COc3ccccn3)cc2c(=O)n1Cc1ccc(-c2ccccc2-c2nn[nH]n2)cc1 gave IC50 of 0.13

CCCCc1nc2ccc(COc3ccccc3)cc2c(=O)n1Cc1ccc(-c2ccccc2-c2nnn[nH]2)cc1 has a reported IC50 of 0.13

IC50 recorded for this compound, CCCCc1nc(Cl)c(CO)n1Cc1ccc(-c2ccccc2-c2nn[nH]n2)cc1 [LOSARTAN] , is 0.33

====

Molecular target: Angiotensin II receptor (Rattus norvegicus, UniProt P29089+P25095+P35351)
Experiment: Concentration required for 50% inhibition of binding against Angiotensin II receptor in the rat adrenal cortex tissue
metric: pIC50
For clarity, pIC50 is expressed as the negative log10 of concentration in mol/L.

get_value(item= CCCCc1nc2ccc(CO)cc2c(=O)n1Cc1ccc(-c2ccccc2-c2nn[nH]n2)cc1 , readout=pIC50) returns 8.00

Notebook: CCCCc1nc2ccc(C)cc2c(=O)n1Cc1ccc(-c2ccccc2-c2nn[nH]n2)cc1 , pIC50 read as 8.00

Lab note: CCCCc1nc2ccc(C(CC)OC)cc2c(=O)n1Cc1ccc(-c2ccccc2-c2nn[nH]n2)cc1 (centres undefined) gave pIC50 of 8.30

Query CCCCc1nc2ccc(C(C)(C)O)cc2c(=O)n1Cc1ccc(-c2ccccc2-c2nn[nH]n2)cc1 yields pIC50 of 8.05

So for CCCCc1nc2ccc(C(O)CO)cc2c(=O)n1Cc1ccc(-c2ccccc2-c2nn[nH]n2)cc1 (centres undefined) , the logged pIC50 turned out to be 6.00

Input CCCCc1nc2ccc(C(C)(C)OC)cc2c(=O)n1Cc1ccc(-c2ccccc2-c2nn[nH]n2)cc1 . Output pIC50: 8.22

Per the records, this compound ( CCCCc1nc2ccc(CN)cc2c(=O)n1Cc1ccc(-c2ccccc2-c2nn[nH]n2)cc1 ) has pIC50 equal to 7.82

The compound listed as CCCCc1nc2ccc(C(C)OC)cc2c(=O)n1Cc1ccc(-c2ccccc2-c2nn[nH]n2)cc1 (centres undefined) has a reported pIC50 of 8.15

Recorded pIC50 (compound CCCCc1nc2ccc(C(C)O)cc2c(=O)n1Cc1ccc(-c2ccccc2-c2nn[nH]n2)cc1 (centres undefined) ): 8.05

====

Target: Angiotensin II receptor (Rattus norvegicus, UniProt P29089+P25095+P35351)
Test: Concentration required for 50% inhibition of binding against Angiotensin II receptor in the rat adrenal cortex tissue
metric: IC50 (µM)
// note: answer is a bare numeric in µM

Recorded IC50 (molecule CCCCc1nc2ccc(C(C)NC(C)=O)cc2c(=O)n1Cc1ccc(-c2ccccc2-c2nn[nH]n2)cc1 (stereo unspecified) ): 0.006

The molecule listed as CCCCc1nc2ccc(C(C)N)cc2c(=O)n1Cc1ccc(-c2ccccc2-c2nn[nH]n2)cc1 (stereo unspecified) has a reported IC50 of 0.014

So for CCCCc1nc2ccc(C(O)CC)cc2c(=O)n1Cc1ccc(-c2ccccc2-c2nn[nH]n2)cc1 (stereo unspecified) , the logged IC50 turned out to be 0.012

// field: IC50; key: CCCCc1nc2ccc(C(OC)c3ccccc3)cc2c(=O)n1Cc1ccc(-c2ccccc2-c2nn[nH]n2)cc1 (stereo unspecified) ; value = 0.009

So, CCCCc1nc2ccc(COC)cc2c(=O)n1Cc1ccc(-c2ccccc2-c2nn[nH]n2)cc1 ? Its IC50 was 0.018

Record CCCCc1nc2ccc(C(O)C(C)(C)C)cc2c(=O)n1Cc1ccc(-c2ccccc2-c2nn[nH]n2)cc1 (stereo unspecified) , field IC50: 1
